These data points were gathered from patent US20030068675.

Biological target: T1, ZFP SBS#528 (synthetic, UniProt P08047)
T1 chain: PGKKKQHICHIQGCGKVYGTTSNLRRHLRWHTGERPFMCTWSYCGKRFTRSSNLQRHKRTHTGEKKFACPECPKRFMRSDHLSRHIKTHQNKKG
Assay: EMSA
Conditions: tags: MBP fusion
test readout: pKd
In simple prose, pKd is minus the logarithm base ten of a concentration in moles per litre.

I am curious: what pKd value has been reported for GGGGAGGATC (dsDNA) DNA 1: GGGGAGGATC DNA 2: GATCCTCCCC ? 8.00
